// values below are fmCYP3A4; system is UniProt:P08684
Sequence (P08684 whole entry): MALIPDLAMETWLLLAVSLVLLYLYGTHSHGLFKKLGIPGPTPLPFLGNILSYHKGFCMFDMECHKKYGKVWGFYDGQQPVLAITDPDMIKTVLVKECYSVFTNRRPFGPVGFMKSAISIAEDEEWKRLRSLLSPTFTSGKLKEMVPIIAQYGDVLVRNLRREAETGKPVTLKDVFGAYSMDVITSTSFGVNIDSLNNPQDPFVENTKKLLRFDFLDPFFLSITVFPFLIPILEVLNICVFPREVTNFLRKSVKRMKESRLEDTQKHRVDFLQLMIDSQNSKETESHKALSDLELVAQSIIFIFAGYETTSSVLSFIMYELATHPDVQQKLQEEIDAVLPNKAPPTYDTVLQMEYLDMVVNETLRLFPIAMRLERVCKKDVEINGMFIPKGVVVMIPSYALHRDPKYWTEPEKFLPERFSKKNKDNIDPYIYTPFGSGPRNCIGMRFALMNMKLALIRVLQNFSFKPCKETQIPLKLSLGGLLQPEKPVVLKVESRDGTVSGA
One number for each entry, in %.

Answered examples (5):
Under UniProt:P08684: fmCYP3A4 value of CCCCN(CCCC)CC(O)c1cc(Cl)cc2c1-c1ccc(Cl)cc1/C2=C/c1ccc(Cl)cc1 (stereo not shown) ?
40

Under UniProt:P08684: fmCYP3A4 value of COc1ccc2nc3cc(Cl)ccc3c(Nc3cc(CN4CCCC4)c(O)c(CN4CCCC4)c3)c2n1 ?
61.1

Under UniProt:P08684: fmCYP3A4 value of CS(=O)(=O)c1ccc(-c2cnc(N)c(-c3ccc(C(F)(F)F)nc3)c2)cc1 ?
10

Under UniProt:P08684: fmCYP3A4 value of [H]/N=C(\N/C(=N/[H])Nc1ccc(Cl)cc1)NC(C)C ?
3

Under UniProt:P08684: fmCYP3A4 value of OC(c1cc(C(F)(F)F)nc2c(C(F)(F)F)cccc12)C1CCCCN1 (stereo not shown) ?
95

Each compound below has a reported value. Please supply its fmCYP3A4.
1. CO[C@H]1O[C@@H]2O[C@@]3(C)CC[C@H]4[C@H](C)CC[C@@H]([C@H]1C)[C@@]24OO3
2. Clc1ccc2c(N3CCN(CCCN4CCN(c5ccnc6cc(Cl)ccc56)CC4)CC3)ccnc2c1

1. 53
2. 80
